Listed next: entries and their corresponding AC50.
- target of assay: human PAH with the R408W mutation (Homo sapiens, UniProt P00439, R408W)
- Construct: expressed in transfected cells
- method notes: Cell Based Phenylalanine Flux Assay
- experimental setup: A375 cells expressing R408W PAH; 24 hrs with compound, then 20 µM sepiapterin and 800 µM 13C9,15N-Phenylalanine for 4 hours; 13C-Tyrosine by LC-MS; average where tested multiple times; read-out: AC50

Guide cases for AC50, answers given:
Fc1ncccc1-c1nnc(N2CCc3[nH]cnc3C2c2cc3c(C(F)F)cccn3n2)o1 (stereo not drawn) = > 5 µM
Cc1cccn2nc(C3c4nc[nH]c4CCN3C(=O)c3cnn4cc(CCN(C)C)ccc34)cc12 (stereo not drawn) = 1 to 5 µM
O=C(C1CN(c2ccccn2)C1)N1CCc2[nH]cnc2C1c1cc2ccccn2n1 (stereo not drawn) = 1 to 5 µM
COc1cccn2nc(C3c4nc[nH]c4CCN3C(=O)c3cnn4cc(-c5cnn(C)c5)ccc34)cc12 (stereo not drawn) = 1 to 5 µM
Cc1nc(C(C)(C)O)oc1C(=O)N1CCc2[nH]cnc2C1c1cc2cccc(C)n2n1 (stereo not drawn) = 1 to 5 µM
CC(C)(C)c1nnc(N2CCc3[nH]cnc3C2c2cc3ccccn3n2)o1 (stereo not drawn) = 1 to 5 µM

Exercise: State, in one line, measured AC50 of COCCNc1nnc(C(=O)N2CCc3[nH]cnc3C2c2cc3ccccn3n2)o1 (stereo not drawn)
Solution: > 5 µM

Exercise: State, in one line, measured AC50 of O=C(c1cnc(-c2cnccn2)o1)N1CCc2[nH]cnc2C1c1cc2ccccn2n1 (single isomer, unassigned)
Solution: 1 to 5 µM

Exercise: State, in one line, measured AC50 of COc1cccn2nc([C@@H]3c4nc[nH]c4CCN3C(=O)c3cnn4cc(CN(C)C)ccc34)cc12 (single isomer, unassigned)
Solution: 1 to 5 µM

---

- target of assay: human PAH with the R408W mutation (Homo sapiens, UniProt P00439, R408W)
- Construct: expressed in transfected cells
- Sequence (P00439 1-452 R408W): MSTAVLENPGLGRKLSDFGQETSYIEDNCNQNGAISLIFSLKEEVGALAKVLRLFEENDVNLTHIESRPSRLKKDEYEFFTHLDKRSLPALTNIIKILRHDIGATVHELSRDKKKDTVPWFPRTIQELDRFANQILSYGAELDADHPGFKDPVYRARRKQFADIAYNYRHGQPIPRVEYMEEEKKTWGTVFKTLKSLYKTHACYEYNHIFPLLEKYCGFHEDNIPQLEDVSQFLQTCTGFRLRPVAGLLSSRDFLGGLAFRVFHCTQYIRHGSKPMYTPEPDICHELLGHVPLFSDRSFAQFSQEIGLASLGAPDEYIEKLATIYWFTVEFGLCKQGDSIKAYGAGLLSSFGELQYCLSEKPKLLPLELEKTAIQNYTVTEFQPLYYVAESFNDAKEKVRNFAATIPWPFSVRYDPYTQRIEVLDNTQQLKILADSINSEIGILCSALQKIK
- method notes: Cell Based Phenylalanine Flux Assay
- experimental setup: A375 cells expressing human R408W PAH; 24 hrs compound incubation; 13C-Tyrosine by LC-MS; average where tested multiple times; read-out: AC50
experimental readout: AC50

Guide cases for AC50, answers given:
CN(C)c1ccc2c(C(=O)N3CCc4[nH]cnc4[C@@H]3c3cc4c(F)cccn4n3)cnn2c1 [Example 1773] = > 5000 nM
Cc1cccc(-c2nnc(C(=O)N3CCc4[nH]cnc4[C@@H]3c3cc4c(Cl)cccn4n3)o2)n1 [Example 1430] = > 5000 nM
CN(C)c1ccc2c(C(=O)N3CCc4[nH]cnc4[C@H]3c3cc4c(C(F)F)cccn4n3)cnn2c1 [Example 1770] = 500 to 1000 nM

Exercise: State, in one line, measured AC50 of Cc1ccn2nc([C@H]3c4nc[nH]c4CCN3C(=O)c3ocnc3C(F)F)cc2c1 [Example 1005]
Solution: < 500 nM

Exercise: State, in one line, measured AC50 of Cc1cccn2nc([C@@H]3c4nc[nH]c4CCN3C(=O)c3nnc(-c4cnccn4)o3)cc12 [Example 957]
Solution: < 500 nM

Exercise: State, in one line, measured AC50 of O=C(c1nnc(-c2cnccn2)o1)N1CCc2[nH]cnc2[C@@H]1c1cc2c(F)cccn2n1 [Example 963]
Solution: > 5000 nM

Exercise: State, in one line, measured AC50 of FC(F)(F)c1cnc(N2CCc3[nH]cnc3[C@H]2c2cc3c(Cl)cccn3n2)nc1 [Example 1780]
Solution: < 500 nM

Exercise: State, in one line, measured AC50 of O=C(c1ccnn1C(F)F)N1CCc2[nH]cnc2[C@H]1c1cc2cc(F)ccn2n1 [Example 1092]
Solution: 500 to 1000 nM

---

- target of assay: human PAH with the R408W mutation (Homo sapiens, UniProt P00439, R408W)
- Construct: expressed in transfected cells
- Sequence (P00439 1-452 R408W): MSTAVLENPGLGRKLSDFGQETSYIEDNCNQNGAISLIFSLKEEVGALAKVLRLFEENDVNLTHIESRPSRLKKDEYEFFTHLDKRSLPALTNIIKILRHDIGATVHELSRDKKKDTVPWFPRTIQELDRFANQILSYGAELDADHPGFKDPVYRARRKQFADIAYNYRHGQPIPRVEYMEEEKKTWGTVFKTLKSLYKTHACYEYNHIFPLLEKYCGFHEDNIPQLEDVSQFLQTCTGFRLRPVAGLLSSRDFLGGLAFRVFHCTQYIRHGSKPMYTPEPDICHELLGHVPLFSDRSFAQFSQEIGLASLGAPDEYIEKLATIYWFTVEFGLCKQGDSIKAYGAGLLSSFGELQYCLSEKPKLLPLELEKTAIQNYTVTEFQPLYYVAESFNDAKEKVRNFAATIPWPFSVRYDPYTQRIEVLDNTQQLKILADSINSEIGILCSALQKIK
- method notes: Cell Based Phenylalanine Flux Assay;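 note: after compound treatment, cells received sepiapterin plus isotope-labelled Phenylalanine for 4 hours, then labelled Tyrosine in the medium was quantified, 10-point 2-fold dilution series run in duplicate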
- experimental setup: A375 cells expressing human R408W PAH; 24 hrs compound incubation; 13C-Tyrosine by LC-MS; average where tested multiple times; read-out: AC50
experimental readout: AC50

Cc1ncccc1-c1nnc(C(=O)N2CCc3[nH]cnc3[C@@H]2c2cc3cccc(F)n3n2)o1 = > 5000 nM

Exercise: State, in one line, measured AC50 of O=C(c1nnc(-c2ncccc2F)o1)N1CCc2[nH]cnc2[C@H]1c1cc2ccccn2n1
Solution: 500 to 1000 nM

Exercise: State, in one line, measured AC50 of O=C(c1nnc(-c2cnn(C(F)F)c2)o1)N1CCc2[nH]cnc2[C@H]1c1cc2cccc(C(F)F)n2n1
Solution: 500 to 1000 nM

Exercise: State, in one line, measured AC50 of O=C(c1nnc(-c2cnn(C(F)F)c2)o1)N1CCc2[nH]cnc2[C@@H]1c1cc2cccc(Cl)n2n1
Solution: 1000 to 5000 nM

Exercise: State, in one line, measured AC50 of COc1cccn2nc([C@H]3c4nc[nH]c4CCN3C(=O)c3cc(C)nn3C)cc12
Solution: > 5000 nM

Exercise: State, in one line, measured AC50 of CC(C)c1nnc(C(=O)N2CCc3[nH]cnc3[C@H]2c2cc3ccccn3n2)o1
Solution: 500 to 1000 nM

Exercise: State, in one line, measured AC50 of O=C(c1cnn2cc(C3CC3)ccc12)N1CCc2[nH]cnc2[C@@H]1c1cc2cccc(F)n2n1
Solution: > 5000 nM

Exercise: State, in one line, measured AC50 of COCc1ccc2c(C(=O)N3CCc4[nH]cnc4[C@H]3c3cc4c(C(F)(F)F)cccn4n3)cnn2c1
Solution: 500 to 1000 nM

Exercise: State, in one line, measured AC50 of Cc1c(-c2nnc(C(=O)N3CCc4[nH]cnc4[C@@H]3c3cc4cccc(C)n4n3)o2)cnn1C
Solution: 1000 to 5000 nM

Exercise: State, in one line, measured AC50 of O=C(c1oc(C2(O)CC2)nc1C(F)F)N1CCc2[nH]cnc2[C@H]1c1cc2cccc(Cl)n2n1
Solution: < 500 nM

Exercise: State, in one line, measured AC50 of Cc1cc(-c2nnc(C(=O)N3CCc4[nH]cnc4[C@H]3c3cc4cccc(C(F)F)n4n3)o2)nn1C
Solution: 500 to 1000 nM

Exercise: State, in one line, measured AC50 of Cc1cccn2nc([C@H]3c4nc[nH]c4CCN3C(=O)c3nnc(-c4ncccc4F)o3)cc12
Solution: > 5000 nM

Exercise: State, in one line, measured AC50 of O=C(c1nnc(-c2cnccn2)o1)N1CCc2[nH]cnc2[C@@H]1c1cc2c(C(F)(F)F)cccn2n1
Solution: > 5000 nM

Exercise: State, in one line, measured AC50 of O=C(c1nnc(-c2ccccn2)o1)N1CCc2[nH]cnc2[C@H]1c1cc2c(OC(F)(F)F)cccn2n1
Solution: < 500 nM

Exercise: State, in one line, measured AC50 of COc1cccn2nc([C@H]3c4nc[nH]c4CCN3C(=O)c3cc(C(F)F)nn3C)cc12
Solution: > 5000 nM

Exercise: State, in one line, measured AC50 of O=C(c1nnc(-c2ccn(C(F)(F)F)n2)o1)N1CCc2[nH]cnc2[C@H]1c1cc2c(C(F)F)cccn2n1
Solution: < 500 nM

Exercise: State, in one line, measured AC50 of COc1ccc(-c2nnc(C(=O)N3CCc4[nH]cnc4[C@@H]3c3cc4cccc(C(F)F)n4n3)o2)nc1
Solution: > 5000 nM

Exercise: State, in one line, measured AC50 of Cc1ncccc1-c1nnc(C(=O)N2CCc3[nH]cnc3[C@H]2c2cc3c(C(F)F)cccn3n2)o1
Solution: < 500 nM

Exercise: State, in one line, measured AC50 of O=C(c1nnc(C2CC2)o1)N1CCc2[nH]cnc2[C@@H]1c1cc2ccccn2n1
Solution: > 5000 nM

Exercise: State, in one line, measured AC50 of Cc1c(-c2nnc(C(=O)N3CCc4[nH]cnc4[C@H]3c3cc4cccc(F)n4n3)o2)cnn1C
Solution: < 500 nM

Exercise: State, in one line, measured AC50 of O=C(c1nnc(-c2ncccc2F)o1)N1CCc2[nH]cnc2[C@@H]1c1cc2c(C(F)F)cccn2n1
Solution: > 5000 nM
